- experimental.system: purified human HDAC6 (Homo sapiens, UniProt Q9UBN7)
- Construct: purchased BPS Bioscience 5006
- Sequence (Q9UBN7 whole entry): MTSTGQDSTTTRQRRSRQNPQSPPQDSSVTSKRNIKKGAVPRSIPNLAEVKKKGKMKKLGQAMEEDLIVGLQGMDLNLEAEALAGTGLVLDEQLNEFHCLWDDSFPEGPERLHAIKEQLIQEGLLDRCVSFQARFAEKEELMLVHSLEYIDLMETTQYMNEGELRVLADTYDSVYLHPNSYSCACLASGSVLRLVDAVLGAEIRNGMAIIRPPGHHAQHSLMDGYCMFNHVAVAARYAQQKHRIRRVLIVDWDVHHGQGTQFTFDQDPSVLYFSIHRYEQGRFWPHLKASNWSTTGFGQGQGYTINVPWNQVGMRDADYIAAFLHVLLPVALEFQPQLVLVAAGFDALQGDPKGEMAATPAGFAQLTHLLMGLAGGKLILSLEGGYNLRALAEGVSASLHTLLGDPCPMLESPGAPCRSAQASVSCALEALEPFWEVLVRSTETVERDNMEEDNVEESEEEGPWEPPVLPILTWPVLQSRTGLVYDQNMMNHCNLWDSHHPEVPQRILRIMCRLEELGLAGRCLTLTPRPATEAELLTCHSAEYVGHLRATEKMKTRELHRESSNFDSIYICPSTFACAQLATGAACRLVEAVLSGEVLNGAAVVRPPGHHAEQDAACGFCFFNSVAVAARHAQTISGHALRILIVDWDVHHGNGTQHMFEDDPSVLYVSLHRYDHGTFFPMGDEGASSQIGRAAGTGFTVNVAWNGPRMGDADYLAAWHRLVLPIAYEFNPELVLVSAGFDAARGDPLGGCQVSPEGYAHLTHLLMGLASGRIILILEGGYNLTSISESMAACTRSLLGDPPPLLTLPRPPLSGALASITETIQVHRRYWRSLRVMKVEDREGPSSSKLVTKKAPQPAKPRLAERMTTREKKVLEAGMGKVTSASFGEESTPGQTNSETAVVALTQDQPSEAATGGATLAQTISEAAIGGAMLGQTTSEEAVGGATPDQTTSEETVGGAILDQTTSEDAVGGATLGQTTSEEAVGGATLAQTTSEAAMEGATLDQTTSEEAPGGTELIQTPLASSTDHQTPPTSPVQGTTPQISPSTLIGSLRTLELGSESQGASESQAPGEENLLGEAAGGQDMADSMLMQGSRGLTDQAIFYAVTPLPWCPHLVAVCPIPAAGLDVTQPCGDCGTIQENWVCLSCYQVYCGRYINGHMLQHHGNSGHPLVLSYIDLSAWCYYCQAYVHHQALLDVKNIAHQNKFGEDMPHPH
- assay.summary: HDAC6 Enzyme Assay
- Assay type: biochemical
- condition.label: compound concentration 0.412 μM, read-out: Percent Inhibition
property.measured: inhibition at 0.412 µM (%)

Record excerpt, results attached:
[
  {
    "smiles.string": "O=C(NO)c1ccc2ccn(CCCOc3ccccc3C(F)(F)F)c(=O)c2c1",
    "experimental.system": "purified human HDAC6 (Homo sapiens, UniProt Q9UBN7)",
    "unit.text": "%",
    "recorded.result": 90
  },
  {
    "smiles.string": "O=C(Cn1cnc2ccc(C(=O)NO)cc2c1=O)c1ccc(N2CCCC2)cc1",
    "experimental.system": "purified human HDAC6 (Homo sapiens, UniProt Q9UBN7)",
    "unit.text": "%",
    "recorded.result": 85.1
  },
  {
    "smiles.string": "COc1ccc(Nc2nc3ccc(C(=O)NO)cc3c(=O)n2C)cc1",
    "experimental.system": "purified human HDAC6 (Homo sapiens, UniProt Q9UBN7)",
    "unit.text": "%",
    "recorded.result": 46.7
  },
  {
    "smiles.string": "Cn1c(=O)[nH]c2ccc(C(=O)NO)cc2c1=O",
    "experimental.system": "purified human HDAC6 (Homo sapiens, UniProt Q9UBN7)",
    "unit.text": "%",
    "recorded.result": 62.8
  },
  {
    "smiles.string": "CC(C)(C)OC(=O)N(CCCn1ccc2ccc(C(=O)NO)cc2c1=O)c1ccncc1",
    "experimental.system": "purified human HDAC6 (Homo sapiens, UniProt Q9UBN7)",
    "unit.text": "%",
    "recorded.result": 95.6
  }
]

(1) Cn1cnc2ccc(C(=O)NO)cc2c1=O
(2) Cc1ccccc1OCCn1ccc2ccc(C(=O)NO)cc2c1=O
Between the two listed entries 1 and 2 , which has its inhibition at 0.412 µM at the higher number? Use the label to indicate which entry you chose. 2

Numbers sourced from patent US8765773B2.
